assay: recombinant barcode read abundance after kanamycin selection (control-corrected) (log10(CPM+1)); higher = more efficient recombination; sequences stand for … in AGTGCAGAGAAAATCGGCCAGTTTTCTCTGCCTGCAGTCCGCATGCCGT…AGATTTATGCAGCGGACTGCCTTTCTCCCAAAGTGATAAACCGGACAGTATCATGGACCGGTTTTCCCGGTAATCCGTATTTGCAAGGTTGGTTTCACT; site = the 11-nt target;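 note: IS621 recombinase and bridge RNA in Escherichia coli cells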
testReadout: recombinant barcode read abundance (log10)

{"biosequence": "GTTCGAGCTTGGGTTCTAACCTGTTGCCT (site GTTTGAGCTAG)", "measuredValue": 0.153}
{"biosequence": "CCTCCCTCTTGGGTTCTAACCTGTTGCTA (site CCTCCCTCTCA)", "measuredValue": 0.481}
{"biosequence": "GTAGTCCCTTGGGTTCTAACCTGTTGCCT (site GAAGTCTCTAG)", "measuredValue": 0.118}
{"biosequence": "CTCGATACTTGGGTTCTAACCTGTTGCTT (site CTCGATACTAA)", "measuredValue": 0.684}
{"biosequence": "GGAAGTTCTTGGGTTCTAACCTGTTGCCT (site GAAAGTTCTAG)", "measuredValue": 0.0496}

Incoming: Requested read-out: recombinant barcode read abundance (log10). Entry: CCGTAACCTTGGGTTCTAACCTGTTGCCT (site CCGTAACCTAG)
Outgoing: 1.57

Incoming: Would you mind telling me what recombinant barcode read abundance (log10) value was observed for ACCACAGCTTGGGTTCTAACCTGTTGCCT (site ACCAAAGCTTG) ?
Outgoing: 0.16

Incoming: Look up recombinant barcode read abundance (log10): TAGAATCCTTGGGTTCTAACCTGTTGCAG (site TAGAATCCTTT)
Outgoing: 0.072
